# Tested on: H9 cell or Sup T1 cell
# measurementDescription: Cytotoxicity by trypan blue dye exclusion
# Type: cell-based
# reportedConditions: concentration that causes death of cells by 50%, 0.1µM to 100µM tested
This listing pairs compounds with measured CT50.

testSmiles | targetUnderTest | observedResult
CC(C)[C@H](NC(=O)OC[C@@H]1O[C@@H]1[C@H](Cc1ccccc1)NC(=O)[C@@H](NC(=O)c1ccc2ccccc2n1)C(C)(C)S(C)(=O)=O)c1ccccc1 | H9 cell or Sup T1 cell | >10 µM

Qu. Field: CT50 (H9 cell or Sup T1 cell). Entry: "CC(C)[C@@H](Cc1ccccc1)NC(=O)OC[C@@H]1O[C@@H]1[C@H](Cc1ccccc1)NC(=O)[C@@H](NC(=O)c1ccc2ccccc2n1)C(C)(C)S(C)(=O)=O"
Ans. >10 µM

Qu. Field: CT50 (H9 cell or Sup T1 cell). Entry: "CC(C)[C@@H](Cc1ccccc1)NC(=O)OC[C@@H]1O[C@@H]1[C@H](Cc1ccccc1)NC(=O)[C@@H](NC(=O)OCc1ccccc1)C(C)(C)S(C)(=O)=O"
Ans. >10 µM
